Target: T1, human Protein S (UniProt P07225 42-676)
T1 chain: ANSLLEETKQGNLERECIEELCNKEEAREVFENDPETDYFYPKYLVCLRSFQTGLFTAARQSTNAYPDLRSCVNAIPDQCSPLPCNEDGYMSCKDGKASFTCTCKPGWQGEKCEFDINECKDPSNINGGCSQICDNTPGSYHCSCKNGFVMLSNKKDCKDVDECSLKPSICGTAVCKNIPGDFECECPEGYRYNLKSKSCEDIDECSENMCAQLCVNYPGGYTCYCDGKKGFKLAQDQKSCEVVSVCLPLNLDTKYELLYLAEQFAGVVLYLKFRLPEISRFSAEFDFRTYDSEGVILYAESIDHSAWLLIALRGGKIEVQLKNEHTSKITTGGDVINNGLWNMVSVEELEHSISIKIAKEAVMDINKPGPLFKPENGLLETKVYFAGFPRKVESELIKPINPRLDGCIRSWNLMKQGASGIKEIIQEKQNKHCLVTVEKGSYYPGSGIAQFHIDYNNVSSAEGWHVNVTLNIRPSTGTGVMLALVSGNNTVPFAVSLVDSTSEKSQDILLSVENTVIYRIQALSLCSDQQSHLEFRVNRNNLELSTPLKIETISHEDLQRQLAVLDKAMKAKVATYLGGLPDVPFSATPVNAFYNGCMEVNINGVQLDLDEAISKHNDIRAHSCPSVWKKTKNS
Assay: LANCE competition
pIC50: −log10 of the molar value.
assayReadout: pIC50

Ac-RYIVSAGWYDIIQDTYFEFY-NH2 [JBS3285] :: 8.92
Ac-EYEVSAGWYDYNNDVYNEFY-NH2 [JBS3277] :: 8.47
Ac-YNIVSAGWYDYNKDTYYEFF-NH2 [JBS3279] :: 8.82
Ac-FEYVSAGWYDYNTDTYYEFY-NH2 [JBS3271] :: 8.72
Ac-EYSVSAGWYDYYNDTYYEFY-NH2 [JBS3265] :: 8.85

Values were extracted from patent US20150246947A1.
